Molecular target: human P2X3 receptor (Homo sapiens (Human))
Sequence (P56373 whole entry): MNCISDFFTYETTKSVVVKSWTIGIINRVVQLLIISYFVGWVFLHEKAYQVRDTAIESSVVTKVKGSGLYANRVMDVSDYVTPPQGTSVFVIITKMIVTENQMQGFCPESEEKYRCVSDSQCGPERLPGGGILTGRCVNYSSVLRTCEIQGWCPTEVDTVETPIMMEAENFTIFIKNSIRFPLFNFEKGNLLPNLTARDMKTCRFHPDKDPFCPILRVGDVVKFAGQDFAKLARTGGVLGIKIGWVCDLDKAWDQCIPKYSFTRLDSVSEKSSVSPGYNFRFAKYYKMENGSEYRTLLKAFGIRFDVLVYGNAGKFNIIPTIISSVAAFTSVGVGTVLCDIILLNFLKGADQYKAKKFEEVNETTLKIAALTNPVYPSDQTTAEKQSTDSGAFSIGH
Experiment: Evaluation of human P2X3 receptor inhibitory activity (Fluo-3 calcium fluorescence, FDSS 3000, ATP stimulation);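 also: stimulus was 50 nM ATP with fluorescence followed for 3 min, and the response per well was peak post-ATP fluorescence divided by the reading at measurement start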
Assay type: cell-based
Details: C6BU-1 cells stably expressing human P2X3 receptor
pIC50: −log10 of the molar value.
Listing: pIC50 of selected compounds
Assay Endpoint: pIC50

- CC(C)Oc1ccc(/N=c2\[nH]c(=O)n(C[C@@H](O)CO)c(=O)n2Cc2ccc(Cl)cc2)cc1Cl: 8.00
- CC(C)Oc1ccc(/N=c2\[nH]c(=O)n(C[C@@H]3COC(C)(C)O3)c(=O)n2Cc2ccc(Cl)cc2)cc1Cl: 8.00
- CC(C)Oc1ccc(/N=c2\[nH]c(=O)n(CCC(=O)NO)c(=O)n2Cc2ccc(Cl)cc2)cc1F: 7.92
- CCn1c(=O)[nH]/c(=N\c2ccc(Oc3nc(O)nc(O)n3)cc2)n(Cc2ccc(Cl)cc2)c1=O: 8.30
- Cc1cc2cc(/N=c3\[nH]c(=O)n(CCCOC4CCCCO4)c(=O)n3Cc3ccc(Cl)cc3)ccc2o1 (stereo not drawn): 8.30
- CC(C)Cc1ccc(/N=c2\[nH]c(=O)n(C[C@H](C)C(=O)O)c(=O)n2Cc2ccc(Cl)cc2)cc1Cl: 8.30
- COC(=O)[C@H](C)[C@H](C)n1c(=O)[nH]/c(=N\c2ccc(OC3CCC3)c(C)c2)n(Cc2ccc(C)cc2)c1=O: 7.48
- CNC(=O)[C@@H](C)Cn1c(=O)[nH]/c(=N\c2ccc(OC(C)C)c(C)c2)n(Cc2ccc(Cl)cc2)c1=O: 7.89
- Cc1cc(/N=c2\[nH]c(=O)n(C[C@H](O)CO)c(=O)n2Cc2ccc(Cl)cc2)ccc1OC(C)C: 7.85
- CC(C)Oc1ccc(/N=c2\[nH]c(=O)n(CC(C)(C)C(=O)O)c(=O)n2Cc2ccc(Cl)cc2)cc1CO: 6.62
- COc1ccc(Cn2c(=O)[nH]/c(=N\c3ccc(OC(C)C)c(F)c3)n(Cc3ccc(Cl)cc3)c2=O)cn1: 7.59
- CCn1c(=O)[nH]/c(=N\c2ccc(Oc3ccc(C(N)=O)nc3)cc2)n(Cc2ccc(Cl)cc2)c1=O: 9.00
- Cc1cc(/N=c2\[nH]c(=O)n(C[C@@H](C)C(=O)O)c(=O)n2CC2CCCCC2)ccc1OC(C)C: 6.50
- Cc1cc(/N=c2\[nH]c(=O)n(C(C)(C)CC(=O)O)c(=O)n2Cc2ccc(Cl)cc2)ccc1OC(C)C: 6.88
- Cc1ccc(Cn2c(=O)n(C)c(=O)[nH]/c2=N\c2ccc(Oc3ccnc(C(=O)O)c3)cc2)cc1: 8.15
- CCOc1cc(F)c(/N=c2\[nH]c(=O)n(CCC(=O)O)c(=O)n2Cc2ccc(C)cc2)c(F)c1: 6.02
- CCn1c(=O)[nH]/c(=N\c2ccc(Oc3cccc(CO)c3)cc2)n(Cc2ccc(Cl)cc2)c1=O: 7.27
- COc1ncccc1Cn1c(=O)[nH]/c(=N\c2ccc(OC(C)C)c(F)c2)n(Cc2ccc(Cl)cc2)c1=O: 8.05
- CC(C)Cc1ccc(/N=c2\[nH]c(=O)n([C@@H](C)[C@@H](C)C(=O)O)c(=O)n2Cc2ccc(Cl)cc2)cc1Cl: 8.10
- Cc1ccc(Cn2c(=O)n(C[C@H](C)C(=O)O)c(=O)[nH]/c2=N\c2ccc(OC3CCCC3)cc2)cc1: 7.48
- Cc1ccc(Cn2c(=O)n(CCC(=O)O)c(=O)[nH]/c2=N\c2ccc(OC(C)C)c(CO)c2)cc1: 6.63
- CCn1c(=O)[nH]/c(=N\c2ccc(Oc3ccc(C)c(C(=O)OC)c3)cc2)n(Cc2ccc(Cl)cc2)c1=O: 7.49
- Cc1ccc(Cn2c(=O)n([C@H](C)[C@H](C)C(=O)O)c(=O)[nH]/c2=N\c2ccc(N3CCCCC3)cc2)cc1: 7.47
- C[C@@H](Cn1c(=O)[nH]/c(=N\c2cccc(C(F)(F)F)c2)n(Cc2ccc(Cl)cc2)c1=O)C(=O)O: 7.21
- CC(C)Oc1ccc(/N=c2\[nH]c(=O)n(CCC(=O)O)c(=O)n2CC2CCCCCCC2)cc1F: 6.00
- COc1ccc(CN2C(=O)CC[C@@H]2Cn2c(=O)[nH]/c(=N\c3ccc(OC(C)C)c(F)c3)n(Cc3ccc(Cl)cc3)c2=O)cc1: 8.30
- CC(C)Oc1ccc(/N=c2\[nH]c(=O)n(CC(=O)NCCC3CCOCC3)c(=O)n2Cc2ccc(Cl)cc2)cc1Cl: 8.10
